Where do the numbers come from? From patent US20240383856A1.

// reported logD for each item listed
# Method Summary: logD by shake flask method (octanol / PBS pH 7.4, HPLC)
# Type: physicochemical
# Applied Conditions: octanol / PBS pH 7.4, shake flask

Illustrative cases are given below, each with its answer.
[
  {
    "Compound": "CNC(=O)C(=O)CC[C@H](NC(=O)c1ccnn1C)C(=O)Nc1cccn(CC(=O)N[C@@H]2C[C@H]3CC[C@@H]2C3)c1=O",
    "logD": "< 1"
  },
  {
    "Compound": "CC(C)(C)NC(=O)C(=O)CC[C@H](NC(=O)[C@@H]1CN2CCN1CC2)C(=O)Nc1cccn(CC(=O)NC2C3CC4CC(C3)CC2C4)c1=O (some centres unmarked)",
    "logD": "1 to 3"
  },
  {
    "Compound": "CNC(=O)C(=O)CC[C@H](NC(=O)c1ccn(C)n1)C(=O)Nc1cccn(CC(=O)NC2C3CC4CC(C3)CC2C4)c1=O (some centres unmarked)",
    "logD": "< 1"
  },
  {
    "Compound": "CNC(=O)C(=O)CC[C@H](NC(=O)c1sc(OC)nc1C)C(=O)Nc1cccn(CC(=O)NC2C3CC4CC(C3)CC2C4)c1=O (some centres unmarked)",
    "logD": "1 to 3"
  },
  {
    "Compound": "CNC(=O)C(=O)CC[C@H](NC(=O)c1cncn1C)C(=O)Nc1cccn(CC(=O)NC23CC4CC(CC(C4)C2)C3)c1=O",
    "logD": "< 1"
  }
]

Exercise: Item under review: O=C(Cn1cccc(NC(=O)[C@H](CCC(=O)C(=O)Nc2ccccc2)NC(=O)c2cc3ccccc3o2)c1=O)NC1C2CC3CC(C2)CC1C3 (some centres unmarked) . Reported logD?
Solution: 3 to 5

Exercise: Continue with "CNC(=O)C(=O)CC[C@H](NC(=O)c1oc2ccccc2c1C)C(=O)Nc1cccn(CC(=O)NC23CCC(C2)C3)c1=O"
Solution: < 1

Exercise: Same lookup for CNC(=O)C(=O)CC[C@H](NC(=O)[C@@H]1CCCN1C)C(=O)Nc1cccn(CC(=O)NC2C3CC4CC(C3)CC2C4)c1=O (some centres unmarked) , please.
Solution: 1 to 3

Exercise: And what about the compound CNC(=O)C(=O)CC[C@H](NC(=O)c1csc(Br)n1)C(=O)Nc1cccn(CC(=O)NC2C3CC4CC(C3)CC2C4)c1=O (some centres unmarked) ?
Solution: 1 to 3

Exercise: Entry to check: CNC(=O)C(=O)CC[C@H](NC(=O)c1oc2ccccc2c1Cl)C(=O)Nc1cccn(CC(=O)NC2C3CC4CC(C3)CC2C4)c1=O (some centres unmarked)
Solution: 1 to 3

----------
# Tested On: recombinant human transglutaminase 2 (Homo sapiens, UniProt P21980)
# Construct: purchased Zedira T022
# Sequence (P21980 1-687): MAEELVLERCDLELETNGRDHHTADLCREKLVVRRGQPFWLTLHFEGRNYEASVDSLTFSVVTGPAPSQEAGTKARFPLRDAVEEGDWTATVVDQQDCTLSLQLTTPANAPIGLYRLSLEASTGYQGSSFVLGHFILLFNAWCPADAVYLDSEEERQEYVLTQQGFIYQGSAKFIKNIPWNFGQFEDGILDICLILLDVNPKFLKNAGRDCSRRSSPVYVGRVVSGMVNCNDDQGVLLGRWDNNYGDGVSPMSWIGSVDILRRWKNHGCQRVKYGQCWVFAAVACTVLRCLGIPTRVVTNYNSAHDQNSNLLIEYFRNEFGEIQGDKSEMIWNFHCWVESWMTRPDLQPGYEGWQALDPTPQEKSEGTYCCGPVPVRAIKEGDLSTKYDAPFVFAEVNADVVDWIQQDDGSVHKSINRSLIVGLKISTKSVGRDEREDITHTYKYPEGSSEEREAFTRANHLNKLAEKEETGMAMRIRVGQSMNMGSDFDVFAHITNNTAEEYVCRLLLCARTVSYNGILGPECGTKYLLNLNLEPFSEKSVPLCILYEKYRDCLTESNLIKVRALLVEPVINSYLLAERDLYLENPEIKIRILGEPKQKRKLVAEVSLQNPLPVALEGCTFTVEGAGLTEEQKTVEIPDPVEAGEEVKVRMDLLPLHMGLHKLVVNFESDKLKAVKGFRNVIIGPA
# Method Summary: Transglutaminase assay (DCC-assay): incorporation of dansylcadaverine into dimethylcasein
# Assay type: biochemical
# Applied Conditions: recombinant human TG2 10 nM; dansylcadaverine incorporation into dimethylcasein; read-out: IC50 TG2
pIC50: −log10 of the molar value.
Recorded Endpoint: pIC50

[
  {
    "Compound": "CNC(=O)C(=O)CC[C@H](NC(=O)c1oc2ccccc2c1C)C(=O)Nc1cccn(CC23CC4CC(CC(C4)C2)C3)c1=O [II-107]",
    "pIC50": "6.40 to 7.40"
  }
]

Exercise: Need pIC50, item CNC(=O)C(=O)CC[C@H](NC(=O)c1csc2ccccc12)C(=O)Nc1cccn(CC(=O)NC2C3CC4CC(C3)CC2C4)c1=O (stereo partly shown) [II-137]
Solution: 6.40 to 7.40

Exercise: // same read-out, input: CNC(=O)C(=O)CC[C@H](NC(=O)c1oc2ccccc2c1C)C(=O)Nc1cccn(CC(=O)NC2C3CC4CC2CC(Br)(C4)C3)c1=O (stereo partly shown) [II-71]
Solution: > 7.40

Exercise: Another compound to look at: CNC(=O)C(=O)CC[C@H](NC(=O)c1cc2ccccc2o1)C(=O)Nc1cccn(CC(=O)NC2C3CC4CC(C3)CC2C4)c1=O (stereo partly shown) [II-2]
Solution: > 7.40

----------
The entries below come with measured Papp values attached.
# Method Summary: Caco-2 permeability assay (CacoReady kit)
# Type: in vitro ADME
# Applied Conditions: human, Caco-2, Caco-2 barrier, CacoReady kit; above 1×10^−6 cm/s classified as permeable

Use these answered entries as a reference point.
[
  {
    "Compound": "CNC(=O)C(=O)CC[C@H](NC(=O)c1c[nH]c(C(N)=O)c1)C(=O)Nc1cccn(CC(=O)NC23CC(C2)C3)c1=O",
    "Papp": "< 1 ×10⁻⁶ cm/s"
  },
  {
    "Compound": "CC(C)(C)NC(=O)C(=O)CC[C@H](NC(=O)c1c[nH]c2ccccc12)C(=O)Nc1cccn(CC(=O)NC2C3CC4CC(C3)CC2C4)c1=O (stereo partly drawn)",
    "Papp": "1 to 10 ×10⁻⁶ cm/s"
  }
]

Exercise: Tell me the measured Papp of "CC1(C)[C@@H]2CC[C@@]1(C)[C@@H](NC(=O)Cn1cccc(NC(=O)[C@H](CCC(=O)C(N)=O)NC(=O)c3cc4ccccc4o3)c1=O)C2" , please.
Solution: 1 to 10 ×10⁻⁶ cm/s

----------
# Tested On: recombinant human transglutaminase 2 (Homo sapiens, UniProt P21980)
# Construct: purchased Zedira T022
# Sequence (P21980 1-687): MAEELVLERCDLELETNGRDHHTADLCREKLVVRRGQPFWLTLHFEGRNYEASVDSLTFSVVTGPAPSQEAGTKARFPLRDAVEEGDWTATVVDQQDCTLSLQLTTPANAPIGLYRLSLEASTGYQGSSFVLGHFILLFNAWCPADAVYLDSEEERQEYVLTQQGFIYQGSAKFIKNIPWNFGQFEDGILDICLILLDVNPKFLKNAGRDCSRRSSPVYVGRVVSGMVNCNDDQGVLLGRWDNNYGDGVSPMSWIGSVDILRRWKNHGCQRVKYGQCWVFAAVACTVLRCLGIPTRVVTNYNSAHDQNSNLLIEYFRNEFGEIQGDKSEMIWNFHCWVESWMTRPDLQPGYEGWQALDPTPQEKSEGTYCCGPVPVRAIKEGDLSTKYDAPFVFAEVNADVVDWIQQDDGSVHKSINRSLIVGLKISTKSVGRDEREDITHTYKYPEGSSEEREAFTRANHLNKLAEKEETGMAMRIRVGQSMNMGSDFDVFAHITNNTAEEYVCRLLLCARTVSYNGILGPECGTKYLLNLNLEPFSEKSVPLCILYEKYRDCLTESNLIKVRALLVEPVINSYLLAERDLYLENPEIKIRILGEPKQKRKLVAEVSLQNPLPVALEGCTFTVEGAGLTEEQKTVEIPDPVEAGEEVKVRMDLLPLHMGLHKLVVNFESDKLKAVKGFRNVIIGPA
# Method Summary: Transglutaminase assay (DCC-assay): incorporation of dansylcadaverine into dimethylcasein
# Format: biochemical
# Applied Conditions: recombinant human TG2 10 nM; dansylcadaverine incorporation into dimethylcasein; read-out: IC50 TG2
pIC50: −log10 of the molar value.
Recorded Endpoint: pIC50

Previously resolved entries follow.
[
  {
    "Compound": "NC(=O)C(=O)CC[C@H](NC(=O)c1cc2ccccc2o1)C(=O)Nc1cccn(CC(=O)N[C@@H]2C[C@H]3CC[C@@H]2C3)c1=O",
    "pIC50": "> 7.40"
  },
  {
    "Compound": "CNC(=O)C(=O)CC[C@H](NC(=O)c1cc(C(=O)OC)cc([N+](=O)[O-])c1)C(=O)Nc1cccn(CC(=O)NC2C3CC4CC(C3)CC2C4)c1=O (stereo partly drawn)",
    "pIC50": "> 7.40"
  },
  {
    "Compound": "CNC(=O)C(=O)CC[C@H](NC(=O)c1oc2ccccc2c1C)C(=O)Nc1cccn(CC(=O)N[C@@H]2C[C@@H]3C[C@H]([C@H]2C)C3(C)C)c1=O",
    "pIC50": "6.40 to 7.40"
  }
]

Exercise: What value of pIC50 has been reported for the following compound? CNC(=O)C(=O)CC[C@H](NC(=O)c1ncn(C)n1)C(=O)Nc1cccn(CC(=O)NC2C3CC4CC(C3)CC2C4)c1=O (stereo partly drawn)
Solution: 6.40 to 7.40

Exercise: Next compound: C=CCNC(=O)C(=O)CC[C@H](NC(=O)c1oc2ccccc2c1C)C(=O)Nc1cccn(CC(=O)NC2C3CC4CC(C3)CC2C4)c1=O (stereo partly drawn)
Solution: 6.40 to 7.40

Exercise: Likewise for "CNC(=O)C(=O)CC[C@H](NC(=O)c1oc2ccccc2c1C)C(=O)Nc1cccn(CC23CC4CC(CC(O)(C4)C2)C3)c1=O" ?
Solution: 6.40 to 7.40
